Where do the numbers come from? From patent US10908153B2.

Target: PscE-PscG interaction (Pseudomonas aeruginosa, UniProt P95435+Q9I317)
Construct: made in house; host or cells: E. coli
Sequence (Q9I317 whole entry): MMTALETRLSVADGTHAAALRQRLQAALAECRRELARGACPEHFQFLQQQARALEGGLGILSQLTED
Sequence (P95435 whole entry): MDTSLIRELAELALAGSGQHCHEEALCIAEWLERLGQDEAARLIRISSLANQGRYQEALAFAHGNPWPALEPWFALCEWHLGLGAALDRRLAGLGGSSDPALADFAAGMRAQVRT
Experiment: ELISA test of inhibition of the PscE-PscG interaction
Assay type: binding
Conditions: read-out: % inhibition PscE-PscG at 50 μm
Note to self: values exactly at 80% are Satisfied. So inhibition at 25 µM at or above 80% is Satisfied, below is Not satisfied.

Illustrative cases are given below, each with its answer.
compound="Oc1c(I)cc(Cl)c2cccnc12 [Clioquinol, reference compound]" assigned_label=Satisfied
compound="CC1(C)CC[C@]2(C(=O)O)CC[C@]3(C)C(=CC[C@@H]4[C@@]5(C)CC[C@H](O)[C@@](C)(CO)[C@@H]5CC[C@]43C)[C@@H]2C1 [Hederagenin, reference compound]" assigned_label="Not satisfied"
compound="NC(CO)C(=O)NNCc1ccc(O)c(O)c1O (centres unmarked) [Benserazide, reference compound]" assigned_label=Satisfied

Query block: Threshold query (inhibition at 25 µM >= 80%) on Cc1cc2c(C(C)C)c(O)c(O)c(C=O)c2c(O)c1-c1c(C)cc2c(C(C)C)c(O)c(O)c(C=O)c2c1O [Gossypol, reference compound]
Result block: Not satisfied
